Measured pIC50, listed per entry.
Target: CSF1R (Homo sapiens, UniProt P07333)
Sequence (P07333 20-972): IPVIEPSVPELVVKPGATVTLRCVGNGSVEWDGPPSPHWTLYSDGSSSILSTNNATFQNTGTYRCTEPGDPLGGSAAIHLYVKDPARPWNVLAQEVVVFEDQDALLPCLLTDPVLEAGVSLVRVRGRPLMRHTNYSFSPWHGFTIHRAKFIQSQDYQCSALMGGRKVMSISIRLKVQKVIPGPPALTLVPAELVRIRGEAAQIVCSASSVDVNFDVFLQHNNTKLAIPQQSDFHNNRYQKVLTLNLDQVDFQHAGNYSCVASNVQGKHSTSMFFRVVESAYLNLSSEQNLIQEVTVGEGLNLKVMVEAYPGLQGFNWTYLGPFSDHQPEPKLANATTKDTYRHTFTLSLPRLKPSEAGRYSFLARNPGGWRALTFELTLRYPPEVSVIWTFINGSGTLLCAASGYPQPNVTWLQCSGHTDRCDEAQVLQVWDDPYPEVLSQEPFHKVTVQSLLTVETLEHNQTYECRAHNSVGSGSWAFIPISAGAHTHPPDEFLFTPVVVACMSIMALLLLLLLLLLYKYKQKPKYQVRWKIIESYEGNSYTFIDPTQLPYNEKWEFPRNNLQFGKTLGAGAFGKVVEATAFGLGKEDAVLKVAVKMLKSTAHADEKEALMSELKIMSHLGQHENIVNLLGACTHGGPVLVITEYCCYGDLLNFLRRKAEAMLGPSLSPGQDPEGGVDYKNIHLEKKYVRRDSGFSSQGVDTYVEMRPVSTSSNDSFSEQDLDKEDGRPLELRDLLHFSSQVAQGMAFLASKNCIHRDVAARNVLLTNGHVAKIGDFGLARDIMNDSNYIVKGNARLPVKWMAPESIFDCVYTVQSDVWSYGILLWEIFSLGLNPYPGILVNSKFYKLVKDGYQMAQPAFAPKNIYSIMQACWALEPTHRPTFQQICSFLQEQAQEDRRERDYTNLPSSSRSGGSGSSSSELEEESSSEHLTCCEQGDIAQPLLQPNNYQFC
Assay: HEK293 CSF1R phosphorylation MSD assay
Type: cell-based
Set-up: expressed in transfected cells; host or cells: HEK293
Details: 2 h compound, human M-CSF 50 ng/mL for 5 min; read-out: HEK293 pCSF1R M-CSF MSD:IC50
Protocol: The compounds disclosed herein were tested in a CSF1R phosphorylation assay to determine their cellular potency against CSF1R. A HEK293 cell line expressing CSF1R fused to FK506 binding protein (FKBP) as a molecular tag was generated. Inhibition of CSF1R kinase activity will prevent ligand-stimulated autophosphorylation of the CSF1R-FKBP in intact cells. […]
pIC50: −log10 of the molar value.
measured metric: pIC50

query_smiles=COc1cc2ncn(Cc3ccc4nc(N[C@@H]5c6ccccc6C[C@H]5O)sc4c3)c2cc1OC experimental_system="CSF1R (Homo sapiens, UniProt P07333)" measured_metric=pIC50 result="6.70 to 7.30"
query_smiles=COc1cc2ncn(Cc3ccc4nc(Nc5ccccc5)sc4c3)c2cc1OC experimental_system="CSF1R (Homo sapiens, UniProt P07333)" measured_metric=pIC50 result="6.70 to 7.30"
query_smiles=COc1cc2ncn(Cc3ccc4nc(N[C@@H]5CCCC[C@H]5O)sc4c3)c2cc1Br experimental_system="CSF1R (Homo sapiens, UniProt P07333)" measured_metric=pIC50 result="6.70 to 7.30"
query_smiles=O[C@@H]1CCCC[C@H]1Nc1nc2ccc(Cn3cnc4cc(F)cnc43)cc2s1 experimental_system="CSF1R (Homo sapiens, UniProt P07333)" measured_metric=pIC50 result="≥ 7.30"
query_smiles=Cn1cc(-c2cn(Cc3ccc4nc(N[C@@H]5CCCC[C@H]5O)oc4c3)cn2)cn1 experimental_system="CSF1R (Homo sapiens, UniProt P07333)" measured_metric=pIC50 result="6.70 to 7.30"
query_smiles=COc1cc2ncn(Cc3ccc4nc(NCc5ccccc5)sc4c3)c2cc1OC experimental_system="CSF1R (Homo sapiens, UniProt P07333)" measured_metric=pIC50 result="6.70 to 7.30"
query_smiles=COc1cc2ncn(Cc3ccc4nc(NCC5CCCCC5)sc4c3)c2cc1OC experimental_system="CSF1R (Homo sapiens, UniProt P07333)" measured_metric=pIC50 result="6.70 to 7.30"
query_smiles=O[C@@H]1CCCC[C@H]1Nc1nc2ccc(Cn3cnc4cc(N5CCOCC5)cnc43)cc2s1 experimental_system="CSF1R (Homo sapiens, UniProt P07333)" measured_metric=pIC50 result="≥ 7.30"
query_smiles=O[C@@H]1CCCC[C@H]1Nc1nc2ccc(Cn3cnc4cc(Br)cnc43)cc2o1 experimental_system="CSF1R (Homo sapiens, UniProt P07333)" measured_metric=pIC50 result="≥ 7.30"
query_smiles=COc1cc2ncn(Cc3ccc4nc(N[C@@H]5CCCC[C@H]5O)oc4c3)c2cc1OC experimental_system="CSF1R (Homo sapiens, UniProt P07333)" measured_metric=pIC50 result="6.70 to 7.30"
query_smiles=COc1ccccc1Nc1nc2ccc(Cn3cnc4cc(OC)c(OC)cc43)cc2s1 experimental_system="CSF1R (Homo sapiens, UniProt P07333)" measured_metric=pIC50 result="6.70 to 7.30"
query_smiles=COc1cc2c(cc1C#N)ncn2Cc1ccc2nc(N[C@@H]3CCCC[C@H]3O)sc2c1 experimental_system="CSF1R (Homo sapiens, UniProt P07333)" measured_metric=pIC50 result="6.70 to 7.30"
query_smiles=C=Cc1cnc2c(c1)ncn2Cc1ccc2nc(N[C@@H]3CCCC[C@H]3O)sc2c1 experimental_system="CSF1R (Homo sapiens, UniProt P07333)" measured_metric=pIC50 result="≥ 7.30"
query_smiles=COc1cc2ncn(Cc3ccc4nc(NC[C@H]5CCCO5)sc4c3)c2cc1OC experimental_system="CSF1R (Homo sapiens, UniProt P07333)" measured_metric=pIC50 result="6.30 to 6.70"
query_smiles=Cn1cc(-c2cn(Cc3ccc4nc(N[C@@H]5CCCC[C@H]5O)sc4c3)cn2)cn1 experimental_system="CSF1R (Homo sapiens, UniProt P07333)" measured_metric=pIC50 result="6.70 to 7.30"
query_smiles=CC(=O)Nc1cn(Cc2ccc3nc(N[C@@H]4CCCC[C@H]4O)sc3c2)cn1 experimental_system="CSF1R (Homo sapiens, UniProt P07333)" measured_metric=pIC50 result="6.70 to 7.30"
query_smiles=O[C@@H]1Cc2ccccc2[C@H]1Nc1nc2ccc(Cn3cnc4ccc(Br)nc43)cc2s1 experimental_system="CSF1R (Homo sapiens, UniProt P07333)" measured_metric=pIC50 result="≥ 7.30"
